Hello, the source for this data is ChEMBL document CHEMBL4725310, in case you need it.

I'd appreciate it if you could supply pEC50 values for the items below.
- Measured On: Nonstructural protein 5A (Hepatitis C virus)
- Run Description: Inhibition of Hepatitis C virus 1a NS5A
- Parameters: species or system Hepatitis C virus subtype 1a
Reminder that pEC50 is minus the log10 of a molar concentration.

May I ask what pEC50 has been recorded for COC1CCC(C(=O)N[C@H]2CC[C@H](c3ccc(-c4c[nH]c([C@@H]5CCCN5C(=O)[C@H](NC(=O)N5CC[C@@H](NC(=O)OCc6ccccc6)C5)c5ccccc5)n4)cc3)CC2)CC1 (stereo not given in full) ? 9.77

And then CCCC#CCOC(=O)N[C@@H]1CCN(C(=O)N[C@@H](C(=O)N2CCC[C@H]2c2nc(-c3ccc([C@H]4CC[C@H](NC(=O)c5cnccn5)CC4)cc3)c[nH]2)c2ccccc2)C1 , what is it? 9.57

Repeat with CCCCCOC(=O)N[C@@H]1CCN(C(=O)N[C@@H](C(=O)N2CCC[C@H]2c2nc(-c3ccc([C@H]4CC[C@H](NC(=O)c5cnccn5)CC4)cc3)c[nH]2)c2ccccc2)C1 9.01

Same again, this time with COC1CCC(C(=O)N[C@H]2CC[C@H](c3ccc(-c4c[nH]c([C@@H]5CCCN5C(=O)[C@H](NC(=O)N5CC[C@@H](NC(=O)OCC6CCCCC6)C5)c5ccccc5)n4)cc3)CC2)CC1 (stereo not given in full) 10.41

Request: COC1CCN(C(=O)N[C@H]2CC[C@H](c3ccc(-c4c[nH]c([C@@H]5CCCN5C(=O)[C@H](NC(=O)N5CC[C@@H](NC(=O)OCc6ccccc6)C5)c5ccccc5)n4)cc3)CC2)CC1 9.82

---

Provide the reported EC50 of each item.
- Measured On: Nonstructural protein 5A (Hepatitis C virus, UniProt Q5L478)
- Sequence (Q5L478 whole entry): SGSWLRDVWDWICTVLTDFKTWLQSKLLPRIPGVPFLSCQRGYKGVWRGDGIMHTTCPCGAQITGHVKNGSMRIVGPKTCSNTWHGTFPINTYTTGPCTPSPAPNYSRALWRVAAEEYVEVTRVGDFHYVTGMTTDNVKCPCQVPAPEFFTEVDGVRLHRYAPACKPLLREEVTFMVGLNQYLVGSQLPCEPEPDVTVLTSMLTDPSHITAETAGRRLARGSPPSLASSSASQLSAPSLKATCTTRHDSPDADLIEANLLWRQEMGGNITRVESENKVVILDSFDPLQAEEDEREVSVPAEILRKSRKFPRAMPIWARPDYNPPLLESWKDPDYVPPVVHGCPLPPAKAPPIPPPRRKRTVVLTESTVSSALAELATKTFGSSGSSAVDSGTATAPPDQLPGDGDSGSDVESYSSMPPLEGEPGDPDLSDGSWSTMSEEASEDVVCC
- Run Description: Inhibition of Hepatitis C virus 3a NS5A
- Set-up: species or system Hepatitis C virus subtype 3a

Hello, I am looking for reported EC50 with Nonstructural protein 5A (Hepatitis C virus, UniProt Q5L478) for CC(C)(C)C#CCOC(=O)N[C@@H]1CCN(C(=O)N[C@@H](C(=O)N2CCC[C@H]2c2nc(-c3ccc([C@H]4CC[C@H](NC(=O)c5cnc(CO)cn5)CC4)cc3)c[nH]2)c2ccccc2)C1 . Could you help? < 0.01 nM

# iterate: COC(=O)N[C@H](C(=O)N1CCC[C@H]1c1ncc(-c2ccc(-c3ccc(-c4cnc([C@@H]5CCCN5C(=O)[C@@H](NC(=O)OC)C(C)C)[nH]4)cc3)cc2)[nH]1)C(C)C 0.146 nM

---

- Run Description: Oral bioavailability in Sprague-Dawley rat at 3 mg/kg
- Format: ADME, organism-based
- Condition Description: in vivo
Readout Kind: bioavailability (%)
Only the number, expressed in %, is required.

Fill in: bioavailability of CC(C)(C)C#CCOC(=O)N[C@@H]1CCN(C(=O)N[C@@H](C(=O)N2CCC[C@H]2c2nc(-c3ccc([C@H]4CC[C@H](NC(=O)c5cnccn5)CC4)cc3)c[nH]2)c2ccccc2)C1 is ___ 5.3

Param item: CCCCCOC(=O)N[C@@H]1CCN(C(=O)N[C@@H](C(=O)N2CCC[C@H]2c2nc(-c3ccc([C@H]4CC[C@H](NC(=O)c5cnccn5)CC4)cc3)c[nH]2)c2ccccc2)C1 11

Try CC(C)C#CCOC(=O)N[C@@H]1CCN(C(=O)N[C@@H](C(=O)N2CCC[C@H]2c2nc(-c3ccc([C@H]4CC[C@H](NC(=O)c5cnc(CO)cn5)CC4)cc3)c[nH]2)c2ccccc2)C1 next. 18

Field entry: CC(C)C#CCOC(=O)N[C@@H]1CCN(C(=O)N[C@@H](C(=O)N2CCC[C@H]2c2nc(-c3ccc([C@H]4CC[C@H](NC(=O)c5cnccn5)CC4)cc3)c[nH]2)c2ccccc2)C1 10

Next: COC1CCC(C(=O)N[C@H]2CC[C@H](c3ccc(-c4c[nH]c([C@@H]5CCCN5C(=O)[C@H](NC(=O)N5CC[C@@H](NC(=O)OCc6ccccc6)C5)c5ccccc5)n4)cc3)CC2)CC1 (some centres not stated) 1.4

Request: CC(C)(C)C#CCOC(=O)N[C@@H]1CCN(C(=O)N[C@@H](C(=O)N2CCC[C@H]2c2nc(-c3ccc([C@H]4CC[C@H](NC(=O)c5cnc(CO)cn5)CC4)cc3)c[nH]2)c2ccccc2)C1 32

Same again, this time with O=C(N[C@@H]1CCN(C(=O)N[C@@H](C(=O)N2CCC[C@H]2c2nc(-c3ccc([C@H]4CC[C@H](NC(=O)c5cnccn5)CC4)cc3)c[nH]2)c2ccccc2)C1)OCC1CCCCC1 4.9

---

- Run Description: Inhibition of Hepatitis C virus 1a NS5A Q30K mutant
- Set-up: species or system Hepatitis C virus subtype 1a
Please provide measured pEC50 for the entries that follow.
Scale: pEC50 equals -log10([C]), with [C] in mol/L.

Reported pEC50, molecule CC(C)(C)C#CCOC(=O)N[C@@H]1CCN(C(=O)N[C@@H](C(=O)N2CCC[C@H]2c2nc(-c3ccc([C@H]4CC[C@H](NC(=O)c5cnc(CO)cn5)CC4)cc3)c[nH]2)c2ccccc2)C1 : ____ 7.77

And what about the molecule COC(=O)N[C@H](C(=O)N1CCC[C@H]1c1ncc(-c2ccc(-c3ccc(-c4cnc([C@@H]5CCCN5C(=O)[C@@H](NC(=O)OC)C(C)C)[nH]4)cc3)cc2)[nH]1)C(C)C ? 5.91

---

- Measured On: Nonstructural protein 5A (Hepatitis C virus, UniProt Q5L478)
- Run Description: Inhibition of Hepatitis C virus 1b NS5A
- Design: species or system Hepatitis C virus subtype 1b
Readout Kind: EC50 (nM)
Write the value in nM as a bare number.

I have this compound here, COC1CCC(C(=O)N[C@H]2CC[C@H](c3ccc(-c4c[nH]c([C@@H]5CCCN5C(=O)[C@H](NC(=O)N5CC[C@@H](NC(=O)OCC6CCCCC6)C5)c5ccccc5)n4)cc3)CC2)CC1 (stereo partly drawn) , and I need its recorded EC50. 0.016

Quick one: CC(C)C#CCOC(=O)N[C@@H]1CCN(C(=O)N[C@@H](C(=O)N2CCC[C@H]2c2nc(-c3ccc([C@H]4CC[C@H](NC(=O)c5cnc(CO)cn5)CC4)cc3)c[nH]2)c2ccccc2)C1 0.017

Same question for O=C(N[C@@H]1CCN(C(=O)N[C@@H](C(=O)N2CCC[C@H]2c2nc(-c3ccc([C@H]4CC[C@H](NC(=O)c5cnccn5)CC4)cc3)c[nH]2)c2ccccc2)C1)OCC1CCCCC1 please. 0.0065

Then what about the compound CCCCCOC(=O)N[C@@H]1CCN(C(=O)N[C@@H](C(=O)N2CCC[C@H]2c2nc(-c3ccc([C@H]4CC[C@H](NC(=O)c5cnccn5)CC4)cc3)c[nH]2)c2ccccc2)C1 ? 0.0056

Request: COC1CCC(C(=O)N[C@H]2CC[C@H](c3ccc(-c4c[nH]c([C@@H]5CCCN5C(=O)[C@H](NC(=O)N5CC[C@@H](NC(=O)OCc6ccccc6)C5)c5ccccc5)n4)cc3)CC2)CC1 (stereo partly drawn) 0.019

Same read-out for COC1CCN(C(=O)N[C@H]2CC[C@H](c3ccc(-c4c[nH]c([C@@H]5CCCN5C(=O)[C@H](NC(=O)N5CC[C@@H](NC(=O)OCc6ccccc6)C5)c5ccccc5)n4)cc3)CC2)CC1 ? 0.041

And then CCC#CCOC(=O)N[C@@H]1CCN(C(=O)N[C@@H](C(=O)N2CCC[C@H]2c2nc(-c3ccc([C@H]4CC[C@H](NC(=O)c5cnccn5)CC4)cc3)c[nH]2)c2ccccc2)C1 , what is it? 0.018

// same read-out, input: CCCC#CCOC(=O)N[C@@H]1CCN(C(=O)N[C@@H](C(=O)N2CCC[C@H]2c2nc(-c3ccc([C@H]4CC[C@H](NC(=O)c5cnccn5)CC4)cc3)c[nH]2)c2ccccc2)C1 0.013

Ok, now CC(C)(C)C#CCOC(=O)N[C@@H]1CCN(C(=O)N[C@@H](C(=O)N2CCC[C@H]2c2nc(-c3ccc([C@H]4CC[C@H](NC(=O)c5cnc(CO)cn5)CC4)cc3)c[nH]2)c2ccccc2)C1 0.013

Further, for CC#CCOC(=O)N[C@@H]1CCN(C(=O)N[C@@H](C(=O)N2CCC[C@H]2c2nc(-c3ccc([C@H]4CC[C@H](NC(=O)c5cnccn5)CC4)cc3)c[nH]2)c2ccccc2)C1 ? 0.028
